Experiment: in vivo
Conditions: male, Sprague-Dawley, rat, po, 3 mg/kg
PROPERTY LABEL: concentration at 2 h (nM)

[
  {
    "CHEMICAL STRING": "CCC(=O)N1CCC(C(=O)NCc2ccc(OC)cc2C(F)(F)F)CC1",
    "UNIT": "nM",
    "REPORTED MEASUREMENT": 120
  }
]

----------
Assay: in vivo
Conditions: male, Sprague-Dawley, rat, po, 100 mg/kg

[
  {
    "COMPOUND": "CCC(=O)N1CCC(C(=O)NCc2ccc(OC)cc2C(F)(F)F)CC1 [Compound 23/RBH61]",
    "UNIT": "nM",
    "concentration at 48 h": 0
  }
]
